Experiment: Aroma extract dilution analysis (AEDA) by GC-O of aroma isolates of fresh mango cultivars
Settings: Malindi (M) mango cultivar aroma isolate; GC-O on FFAP column
measured_parameter: FD factor M

// solved cases for FD factor M follow
compound="C=CC(=C)CCC=C(C)C [myrcene]" measured_parameter="FD factor M" measured=128
compound="C=CC=CC=CCC=CCC [1,3,5,8-undecatetraene]" measured_parameter="FD factor M" measured=512
compound="CCCC1CCCC(=O)O1 (stereo not shown) [δ-octalactone]" measured_parameter="FD factor M" measured=128
compound="CC(=O)/C=C/C1=C(C)CCCC1(C)C [β-ionone]" measured_parameter="FD factor M" measured=32
compound="CCCCC1CCC(=O)O1 (stereo not shown) [γ-octalactone]" measured_parameter="FD factor M" measured=512
compound="CC1=C(O)C(=O)C(C)O1 (stereo not shown) [4-hydroxy-2,5-dimethyl-3(2H)-furanone]" measured_parameter="FD factor M" measured=2048

Okay, now this compound:
Entry under review: CC(=O)C1=NCCC1 [2-acetyl-1-pyrroline] . Reported FD factor M?
512

Just for reference, patent US20160000127A1 is where these values come from.
